Hey, just so you know, these numbers are from patent US20040072206A1.

ASSAYED SYSTEM: B. subtilis RNAP (Bacillus subtilis, UniProt P37870+P37871)
Construct: endogenous in cells; host or cells: Bacillus subtilis strain PL37 (built from strain 168)
Sequence (P37871 whole entry): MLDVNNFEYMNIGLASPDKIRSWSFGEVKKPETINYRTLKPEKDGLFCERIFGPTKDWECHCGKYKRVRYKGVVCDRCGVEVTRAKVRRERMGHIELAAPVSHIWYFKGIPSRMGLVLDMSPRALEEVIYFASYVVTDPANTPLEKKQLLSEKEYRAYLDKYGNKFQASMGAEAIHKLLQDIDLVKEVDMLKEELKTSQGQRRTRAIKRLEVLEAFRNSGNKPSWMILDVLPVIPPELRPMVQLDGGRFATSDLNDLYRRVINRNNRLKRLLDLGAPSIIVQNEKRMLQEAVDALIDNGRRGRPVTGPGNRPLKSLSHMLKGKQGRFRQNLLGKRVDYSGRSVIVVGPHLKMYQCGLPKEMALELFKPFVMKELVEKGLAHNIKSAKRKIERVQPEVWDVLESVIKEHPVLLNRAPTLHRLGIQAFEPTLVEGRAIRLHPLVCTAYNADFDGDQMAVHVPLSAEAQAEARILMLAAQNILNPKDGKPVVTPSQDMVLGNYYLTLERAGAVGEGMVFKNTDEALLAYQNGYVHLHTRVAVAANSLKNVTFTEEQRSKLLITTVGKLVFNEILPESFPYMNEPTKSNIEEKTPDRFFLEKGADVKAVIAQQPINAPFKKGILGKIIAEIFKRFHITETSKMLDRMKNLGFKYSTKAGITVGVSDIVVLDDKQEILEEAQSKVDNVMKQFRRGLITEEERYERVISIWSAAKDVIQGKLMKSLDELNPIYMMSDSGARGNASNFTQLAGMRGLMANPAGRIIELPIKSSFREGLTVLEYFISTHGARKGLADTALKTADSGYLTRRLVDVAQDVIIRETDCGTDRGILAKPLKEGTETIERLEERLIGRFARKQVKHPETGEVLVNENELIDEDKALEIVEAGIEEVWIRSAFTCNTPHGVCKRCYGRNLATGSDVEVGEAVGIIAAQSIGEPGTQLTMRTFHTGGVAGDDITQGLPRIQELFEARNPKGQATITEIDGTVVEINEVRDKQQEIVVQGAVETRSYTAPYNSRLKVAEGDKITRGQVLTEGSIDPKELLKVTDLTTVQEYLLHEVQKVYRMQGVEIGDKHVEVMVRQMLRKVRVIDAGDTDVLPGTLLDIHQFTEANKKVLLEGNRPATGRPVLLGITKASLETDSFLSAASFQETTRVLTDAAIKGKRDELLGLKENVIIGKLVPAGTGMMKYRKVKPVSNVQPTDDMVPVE
Sequence (P20429 whole entry, further chain): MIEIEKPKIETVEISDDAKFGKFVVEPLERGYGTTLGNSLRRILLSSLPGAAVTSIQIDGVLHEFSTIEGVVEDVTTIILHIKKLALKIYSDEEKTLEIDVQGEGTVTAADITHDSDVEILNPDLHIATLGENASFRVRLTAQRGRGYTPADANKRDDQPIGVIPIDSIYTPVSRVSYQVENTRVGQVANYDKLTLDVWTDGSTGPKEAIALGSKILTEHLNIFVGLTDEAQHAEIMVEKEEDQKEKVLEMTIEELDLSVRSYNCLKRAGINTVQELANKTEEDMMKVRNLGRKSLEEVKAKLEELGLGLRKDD
Sequence (O35011 whole entry, further chain): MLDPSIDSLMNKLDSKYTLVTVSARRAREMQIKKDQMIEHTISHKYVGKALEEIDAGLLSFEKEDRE
Sequence (P37870 whole entry): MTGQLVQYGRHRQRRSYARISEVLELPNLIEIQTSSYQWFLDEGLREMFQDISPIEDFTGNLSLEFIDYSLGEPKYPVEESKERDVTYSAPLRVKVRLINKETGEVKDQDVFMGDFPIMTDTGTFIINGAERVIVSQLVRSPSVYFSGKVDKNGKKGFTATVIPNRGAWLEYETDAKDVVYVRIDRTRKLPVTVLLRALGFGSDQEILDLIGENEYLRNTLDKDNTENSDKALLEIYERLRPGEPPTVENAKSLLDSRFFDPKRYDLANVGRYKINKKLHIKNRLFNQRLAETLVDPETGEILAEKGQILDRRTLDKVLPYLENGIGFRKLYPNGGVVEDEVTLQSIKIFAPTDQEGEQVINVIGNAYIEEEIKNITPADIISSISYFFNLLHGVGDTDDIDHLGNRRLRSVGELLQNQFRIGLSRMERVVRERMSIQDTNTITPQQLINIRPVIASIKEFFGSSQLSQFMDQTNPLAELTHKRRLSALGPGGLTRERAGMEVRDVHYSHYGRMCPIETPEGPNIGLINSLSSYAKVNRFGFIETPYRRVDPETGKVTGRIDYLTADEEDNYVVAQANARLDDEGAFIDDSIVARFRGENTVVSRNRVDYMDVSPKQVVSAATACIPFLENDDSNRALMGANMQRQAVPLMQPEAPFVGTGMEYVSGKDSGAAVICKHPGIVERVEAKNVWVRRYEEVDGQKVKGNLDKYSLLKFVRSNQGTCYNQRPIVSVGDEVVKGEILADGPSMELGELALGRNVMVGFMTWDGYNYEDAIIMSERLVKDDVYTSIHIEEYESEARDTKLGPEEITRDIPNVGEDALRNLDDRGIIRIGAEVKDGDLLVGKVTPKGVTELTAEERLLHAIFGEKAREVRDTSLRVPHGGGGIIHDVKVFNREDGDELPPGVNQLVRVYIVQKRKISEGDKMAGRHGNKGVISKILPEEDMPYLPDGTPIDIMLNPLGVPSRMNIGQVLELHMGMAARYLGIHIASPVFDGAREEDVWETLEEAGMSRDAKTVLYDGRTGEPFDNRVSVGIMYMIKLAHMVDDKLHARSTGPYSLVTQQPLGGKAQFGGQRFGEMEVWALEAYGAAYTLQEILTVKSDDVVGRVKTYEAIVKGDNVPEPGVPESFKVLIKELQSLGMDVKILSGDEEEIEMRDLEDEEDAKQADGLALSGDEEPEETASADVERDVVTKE
ASSAY DETAILS: Dual reporter assay in strain PL37: test reporter Pxyl-lacZ and ratio of control to test reporter (RES:MUG)
Assay type: cell-based
CONDITION PARAMETERS: strain PL37; Dilution Number 10; DMSO control […]
Positions of bridges follow the written chain, without caps; N, C: chain ends. Non-standard residues stand in square brackets, D forms with d. Residues, ends and D or L forms follow the SMILES beside them. *: point of attachment. Ileψ(thiazoline)Cys = CC[C@H](C)[C@H](N)C1=N[C@H](C(=O)*)CS1; dOrn = NCCC[C@@H](N)C(=O)O
Ratio of the control reporter (RES): test reporter (MUG) for assorted compounds
// keep it numeric: no unit symbol after the value

Sample answers from the record:
CN[C@@H]1[C@H](O)[C@H](NC)[C@H]2O[C@@]3(O)C(=O)C[C@@H](C)O[C@H]3O[C@@H]2[C@H]1O [Spectinomycin]    1.10
CC[C@H](C)[C@H](N)C1=N[C@H](C(=O)N[C@@H](CC(C)C)C(=O)N[C@H](CCC(=O)O)C(=O)N[C@H](C(=O)N[C@H]2CCCCNC(=O)[C@H](CC(N)=O)NC(=O)[C@@H](CC(=O)O)NC(=O)[C@H](Cc3cnc[nH]3)NC(=O)[C@@H](Cc3ccccc3)NC(=O)[C@H]([C@@H](C)CC)NC(=O)[C@@H](CCCN)NC2=O)[C@@H](C)CC)CS1 [Bacitracin] ({Ileψ(thiazoline)Cys}-L[dE]IK[dOrn]I[dF]H[dD]N; lactam 4-C)    1.12

Query compound follows.
Query: So what Ratio of the control reporter (RES): test reporter (MUG) did CCn1cc(C(=O)O)c(=O)c2ccc(C)nc21 [Nalidixic Acid] get with B. subtilis RNAP (Bacillus subtilis, UniProt P37870+P37871)?
Result: 1.26
